biological target: human PPARalpha receptor (GR-GAL4-humanPPARalpha-LBD fusion protein) (Homo sapiens, UniProt Q07869); construct: amino acids S167-Y468; experiment: Cellular PPARalpha assay (stably transfected HEK luciferase reporter cell line); details: 24 h incubation
Sequence (Q07869 167-468): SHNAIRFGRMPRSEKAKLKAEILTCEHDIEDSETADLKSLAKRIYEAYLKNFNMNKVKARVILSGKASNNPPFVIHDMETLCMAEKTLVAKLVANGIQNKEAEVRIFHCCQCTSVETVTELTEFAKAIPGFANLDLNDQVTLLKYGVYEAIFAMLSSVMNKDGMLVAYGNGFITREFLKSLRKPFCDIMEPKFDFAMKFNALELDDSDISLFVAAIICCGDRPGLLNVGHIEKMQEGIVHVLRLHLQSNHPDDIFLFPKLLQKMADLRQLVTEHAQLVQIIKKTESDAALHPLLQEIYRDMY

{"columns": ["molecule", "EC50, nM"],
 "data": [
  ["Cc1ccc(-c2nc(COC3CCCC(C(=O)N[C@@H](C)C(=O)O)C3)c(C)o2)cc1 (some centres unmarked) [Example 3]", 99],
  ["CCc1oc(-c2ccc(C(F)(F)F)cc2)nc1COCC1CCCC(C(=O)N[C@H](C(=O)O)C(C)C)C1 (some centres unmarked) [Example 50]", 1.2],
  ["CCc1oc(-c2ccc(C)cc2)nc1CO[C@H]1CCC[C@@H](C(=O)N[C@H](C(=O)O)C(C)C)C1 [Example 21a]", 5],
  ["Cc1ccc(-c2nc(COC3CCCC(C(=O)NC4(C(=O)O)CCCC4)C3)c(C)o2)cc1 (racemic) [Example 25]", 7.2],
  ["Cc1oc(-c2cccc(C(F)(F)F)c2)nc1COCC1CCCC(C(=O)N[C@H](C(=O)O)C(C)C)C1 (some centres unmarked) [Example 44]", 4.5],
  ["Cc1oc(-c2cccc(C(F)(F)F)c2)nc1COC1CCCC(C(=O)N[C@H](C(=O)O)C(C)C)C1 (some centres unmarked) [Example 11]", 15],
  ["CC(C)c1oc(-c2ccc(C(F)(F)F)cc2)nc1COCC1CCCC(C(=O)N[C@H](C(=O)O)C(C)C)C1 (some centres unmarked) [Example 43]", 32],
  ["Cc1ccc(-c2nc(COC3CCCC(C(=O)NC(C)(C)C(=O)O)C3)c(C)o2)cc1 (racemic) [Example 5]", 29]
]}

Data origin: patent US7365084B2
